Entry source: ChEMBL document CHEMBL1152982

assayExplanation: Inhibition of capped and polyadenylated luciferase mRNA in rabbit reticulocyte lysate
Format: functional, Oryctolagus cuniculus
pIC50: −log10 of the molar value.

# compoundSmiles, pIC50
measured = [
    ("COc1cc(OC)c2c(c1)O[C@@]1(c3ccc(Br)cc3)[C@H](c3ccccc3)C[C@@H](O)[C@@]21O", 6.70),
]

* * *

System: HL-60
assayExplanation: Cytotoxicity against human HL60 cells after 72 hrs by MTS assay
Format: functional, cell-based
testConditions: HL-60, 72 h
IC50 values for the molecules below.
measurementKind: IC50 (nM)

# molecule, unitsSymbol, limitQualifier, measured
rows = [
    ("COc1cc(OC)c2c(c1)O[C@@]1(c3ccc(Br)cc3)[C@H](c3ccccc3)C[C@@H](O)[C@@]21O", "nM", "<", 1),
    ("COc1cc(OC)c2c(c1)O[C@@]1(c3ccccc3)[C@H](c3ccccc3)C[C@@H](O)[C@@]21O", "nM", "=", 6000),
    ("CC(=O)O[C@@]12CO[C@@H]1C[C@H](O)[C@@]1(C)C(=O)[C@H](O)C3=C(C)[C@@H](OC(=O)[C@H](O)[C@@H](NC(=O)OC(C)(C)C)c4ccccc4)C[C@@](O)([C@@H](OC(=O)c4ccccc4)[C@H]21)C3(C)C.O.O.O", "nM", "=", 0.5),
    ("CC[C@]1(O)C[C@@H]2CN(CCc3c([nH]c4ccccc34)[C@@](C(=O)OC)(c3cc4c(cc3OC)N(C)[C@H]3[C@@](O)(C(=O)OC)[C@H](OC(C)=O)[C@]5(CC)C=CCN6CC[C@]43[C@@H]65)C2)C1", "nM", "=", 1),
    ("COc1ccc([C@@H]2C[C@@H](O)[C@@]3(O)c4c(OC)cc(OC)cc4O[C@@]23c2ccccc2)cc1", "nM", ">", 10000),
    ("CC[C@@]1(O)C(=O)OCc2c1cc1n(c2=O)Cc2cc3ccccc3nc2-1", "nM", "=", 6),
    ("COc1ccc([C@@]23Oc4cc(OC)cc(OC)c4[C@]2(O)[C@H](O)C[C@H]3c2ccccc2)cc1 (racemic)", "nM", "=", 3),
    ("COc1ccc2c(c1)O[C@@]1(c3ccc(Br)cc3)[C@H](c3ccccc3)[C@@H](C(=O)NCCOCCOCCNC(=O)Cc3cc(=O)oc4cc(N(C)C)ccc34)[C@@H](O)[C@@]21O", "nM", "=", 130),
    ("COc1cccc2c1C(=O)c1c(O)c3c(c(O)c1C2=O)C[C@@](O)(C(=O)CO)C[C@@H]3O[C@H]1C[C@H](N)[C@H](O)[C@H](C)O1", "nM", "=", 13),
]
